Tested on: Zea mays
Method Notes: Selectivity for IC50 of maize histone deacetylase 1A over IC50 of maize histone deacetylase 1B
Quantity Name: Ratio IC50

Structure Smiles String | Target | Ratio IC50
Cn1cc(/C=C/C(=O)c2cccc(Cl)c2Cl)cc1/C=C/C(=O)NO | Zea mays | 2.5

[P] Cn1cc(/C=C/C(=O)c2ccc(Br)cc2)cc1/C=C/C(=O)NO
[Q] Cn1cc(/C=C/C(=O)c2ccc3c(c2)CCO3)cc1/C=C/C(=O)NO
[R] Cn1cc(/C=C/C(=O)c2ccccc2F)cc1/C=C/C(=O)NO
Problem: Sort (3 compounds) by Ratio IC50: min first. Returns: the labels arranged in the requested order.
Solution: P, Q, R

[a] Cc1ccccc1C(=O)/C=C/c1cc(/C=C/C(=O)NO)n(C)c1
[b] CC/C(=C\c1cc(/C=C/C(=O)NO)n(C)c1)C(=O)c1ccccc1
Problem: Exercise: compare a and b ; which one has the greater Ratio IC50? Pick one; state its label.
Solution: b
(b: 20.4, a: 6.5)

[A] Cn1cc(/C=C/C(=O)c2cccc(F)c2)cc1/C=C/C(=O)NO
[B] Cn1cc(/C=C/C(=O)c2ccc(F)c(F)c2)cc1/C=C/C(=O)NO
Problem: Exercise: compare A and B ; which one has the greater Ratio IC50? Pick one; state its label.
Solution: A
